Provenance of the data: patent US20250059258A1

# EXPERIMENTAL SYSTEM: Tremfya Fab with a lambda light chain and binding specificity for IL23 (from the monoclonal antibody guselkumab)
# ASSAY COMMENT: BLI (ForteBio), biotinylated ligand on sensor, as in Example 2
PARAMETER MEASURED: Kd (nM)
Answer in nM, number only, no unit symbol.

Use the examples below as a reference point.
- affinity ligand SEQ ID NO: 41 (designed binder, biotinylated (AviTag system)) MAQAAAGDEAQRWETLGAAYAARGDYDRAIEYYQRALELDPNNAWAWWELGVAYAARGDYDRAIEYYQRALELDPDDAAAWRRLGHAYAARGDYDRAIEYYERALELDPEDELARRILEDARRARQGQAGQGGGSGLNDIFEAQKIEWHECHHHHHH: 24
- affinity ligand SEQ ID NO: 92 (designed binder, biotinylated (AviTag system)) MGGGGSAAAGDEAQRWENQGAAYAARGDYDRAIEYYERALELEPNNAWAWWELGVAYAARGDYDRAIEYYERALELDPDDATAWSRLGHAYAARGDYDRAIGYYERALELDPENETARYLLEHARRARQGQAGQGGGSGLNDIFEAQKIEWHECHHHHHH: 8
- affinity ligand SEQ ID NO: 90 (designed binder, biotinylated (AviTag system)) MGGGGSAAAGDEAQCWENQGAAYAARGDYDRAIEYYERALELDPNNAWAWWELGVAYAARGDYDRAIEYYERALELDPDDATTWSRLGHAYAARGDYDRAIEYYVRALELDPEDETARYLLEHARRARQGQAGQGGGSGLNDIFEAQKIEWHECHHHHHH: 12

Kd reported for this binder affinity ligand SEQ ID NO: 89 (designed binder, biotinylated (AviTag system)) MGGGGSAAAGDEAQHWENQGAAYAARGDYDRAIEYYGRALELDPNNAWAWWELGVAYAARGDYDRAIEYYERALELDPDDATTWSRLGHAYAARGDYDRAIEYYERALELDPEDETARYLLEHARRARQGQAGQGGGSGLNDIFEAQKIEWHECHHHHHH : 8
